pIC50: −log10 of the molar value.
Collected set of pIC50 measured with Lysine-specific demethylase 4C (Homo sapiens, UniProt Q9H3R0) across studies.
OBSERVABLE: pIC50

MOLECULE: CN(c1ccc(Oc2nc(O)c3ccncc3n2)cc1)c1ccc2c(c1)OCC2(C)C
SYSTEM_NAME: Lysine-specific demethylase 4C (Homo sapiens, UniProt Q9H3R0)
RESULT: 6.00 to 7.00
//
MOLECULE: O=C(O)c1ccncc1NCC1CCCc2cc(OCCc3ccccc3)ccc21 (stereo not drawn)
SYSTEM_NAME: Lysine-specific demethylase 4C (Homo sapiens, UniProt Q9H3R0)
RESULT: 6.00 to 7.00
//
MOLECULE: Cn1cnc(-c2nccc3c(O)nc(OCC(F)F)nc23)c1
SYSTEM_NAME: Lysine-specific demethylase 4C (Homo sapiens, UniProt Q9H3R0)
RESULT: 6.00 to 7.00
//
MOLECULE: C[C@@H](c1ccccc1F)n1cc(Oc2nc(O)c3ccncc3n2)cn1
SYSTEM_NAME: Lysine-specific demethylase 4C (Homo sapiens, UniProt Q9H3R0)
RESULT: ≥ 7.00
//
MOLECULE: CN(c1ccc(Oc2nc(O)c3ccncc3n2)cc1)c1cccc(N2CCCC2)c1
SYSTEM_NAME: Lysine-specific demethylase 4C (Homo sapiens, UniProt Q9H3R0)
RESULT: 6.00 to 7.00
//
MOLECULE: CC(C)Oc1nc(O)c2ccncc2n1
SYSTEM_NAME: Lysine-specific demethylase 4C (Homo sapiens, UniProt Q9H3R0)
RESULT: 6.00 to 7.00
//
MOLECULE: CC(C)COc1ccc(N(C)c2ccc(Oc3nc(O)c4ccncc4n3)cc2)cc1
SYSTEM_NAME: Lysine-specific demethylase 4C (Homo sapiens, UniProt Q9H3R0)
RESULT: 5.00 to 6.00
//
MOLECULE: COc1ccc(N(C)c2ccc3c(c2)CCC[C@H]3CNc2cnccc2C(=O)O)cn1
SYSTEM_NAME: Lysine-specific demethylase 4C (Homo sapiens, UniProt Q9H3R0)
RESULT: 6.00 to 7.00
//
MOLECULE: Cc1ccccc1CCn1cnc(-c2cc(C(=O)O)ccn2)c1
SYSTEM_NAME: Lysine-specific demethylase 4C (Homo sapiens, UniProt Q9H3R0)
RESULT: 6.00 to 7.00
